experiment: Nuclear factor erythroid 2-related factor 2/antioxidant responsive element (Nrf2/ARE) small molecule agonists: luciferase reporter gene qHTS assay in human keratinocytes (AID 1919969); conditions: KeratinoSens HaCaT ARE-luciferase, luminescence, 24 h; series mostly up to 92.4 µM; note: nearly all actives have a fitted effect of over 35% in size
Records with an inconclusive call do not appear. Active and inactive are the calls of the source. Calls come from the whole dose curve.
The reply should be one of these categories: 1 (yes) = active, 0 (no) = inactive

Could you kindly confirm the outcome this assay logged for `S=c1[nH]c2ccccc2s1` ?
1 (yes)

Could you kindly confirm the outcome this assay logged for `S=C([S-])NCCNC(=S)[S-].[Mn+2]` ?
0 (no)

Could you kindly confirm the outcome this assay logged for `NC(=O)Cn1c(=O)cc(CCN2CCN(c3nccc4sccc34)CC2)c2ccc(F)cc21` ?
0 (no)

Could you kindly confirm the outcome this assay logged for c1cc(OCC2CO2)cc(OCC2CO2)c1 (centres undefined) ?
1 (yes)

Could you kindly confirm the outcome this assay logged for `O=S(=O)(c1ccc(OCc2ccccc2)cc1)c1ccccc1O` ?
0 (no)

Could you kindly confirm the outcome this assay logged for `O=Cc1ccccc1S(=O)(=O)O` ?
0 (no)

Could you kindly confirm the outcome this assay logged for `O=C(O)c1c(Cl)ccc(Cl)c1Cl` ?
0 (no)

Could you kindly confirm the outcome this assay logged for `O=C(/C=C/c1ccc([N+](=O)[O-])cc1)c1ccccc1` ?
1 (yes)

Could you kindly confirm the outcome this assay logged for `c1cc(CCCc2ccncc2)ccn1` ?
0 (no)

Could you kindly confirm the outcome this assay logged for `CCCCCCCCCCCCN1CCCCCC1=O` ?
0 (no)

Could you kindly confirm the outcome this assay logged for `CC(C)(C)c1cc(O)c(C(C)(C)C)cc1O` ?
1 (yes)

Could you kindly confirm the outcome this assay logged for `NNc1nc(-c2ccc(N)cc2)cs1` ?
1 (yes)

Could you kindly confirm the outcome this assay logged for `CCCCCCCCCCCC(=O)[O][Sn]([CH2]CCC)([CH2]CCC)[O]C(=O)CCCCCCCCCCC` ?
1 (yes)

Could you kindly confirm the outcome this assay logged for `Nc1ccc(N=Nc2ccc(N)cc2)cc1` ?
0 (no)

Could you kindly confirm the outcome this assay logged for `C=Cc1ccc(C(C)(C)C)cc1` ?
0 (no)

Could you kindly confirm the outcome this assay logged for `O=C1C=CC(=O)N1c1cccc(N2C(=O)C=CC2=O)c1` ?
1 (yes)

Could you kindly confirm the outcome this assay logged for `CCCCNc1ccc(C(=O)OCCOCCOCCOCCOCCOCCOCCOCCOCCOC)cc1` ?
0 (no)

Could you kindly confirm the outcome this assay logged for `CN(C)CC/C=C1\c2ccccc2Sc2ccc(Cl)cc21` ?
0 (no)

Could you kindly confirm the outcome this assay logged for `CC(C)(C)c1cc(CCC(=O)OCC(COC(=O)CCc2cc(C(C)(C)C)c(O)c(C(C)(C)C)c2)(COC(=O)CCc2cc(C(C)(C)C)c(O)c(C(C)(C)C)c2)COC(=O)CCc2cc(C(C)(C)C)c(O)c(C(C)(C)C)c2)cc(C(C)(C)C)c1O` ?
0 (no)

Could you kindly confirm the outcome this assay logged for `CN(Cc1ccc(C(C)(C)C)cc1)Cc1cccc2ccccc12` ?
0 (no)

Could you kindly confirm the outcome this assay logged for `CN(C)c1ccc(C2(c3ccc(N(C)C)cc3)OC(=O)c3cc(N(C)C)ccc32)cc1` ?
0 (no)

Could you kindly confirm the outcome this assay logged for `Clc1ccc(Nc2nnc(Cc3ccncc3)c3ccccc23)cc1` ?
0 (no)

Could you kindly confirm the outcome this assay logged for `CNCC[C@@H](Oc1ccccc1C)c1ccccc1` ?
0 (no)

Could you kindly confirm the outcome this assay logged for CCc1c(C)[nH]c2c1C(=O)C(CN1CCOCC1)CC2 (centres undefined) ?
0 (no)

###

experiment: Nuclear factor erythroid 2-related factor 2/antioxidant responsive element (Nrf2/ARE) small molecule agonists: luciferase reporter gene qHTS assay in human keratinocytes (AID 1919969); conditions: KeratinoSens HaCaT ARE-luciferase, luminescence, 24 h; series mostly up to 92.4 µM; note: nearly all actives have a fitted effect of over 35% in size; for activity, positive = activation: % is set by controls: 0 for no effect and ±100 for the full control effect
Records with an inconclusive call do not appear. Activity calls are given as the source filed them. Calls come from the whole dose curve.
For each of the molecules below, state its activity, positive = activation.

activity, positive = activation recorded for this molecule, `N=C(N)N1CCc2ccccc2C1` , is -4.04% [at 8.39 µM] (inactive)

activity, positive = activation recorded for this molecule, `CN(C)CCCN(C)C` , is -12.5% [at 8.39 µM] (inactive)

activity, positive = activation recorded for this molecule, `NC(N)=NCCC[C@H](N)C(=O)O` , is -5.37% [at 8.39 µM] (inactive)

activity, positive = activation recorded for this molecule, `COc1cc2ncnc(Nc3cccc(Cl)c3)c2cc1OC` , is -25.9% [at 19 µM] (inactive)

activity, positive = activation recorded for this molecule, `c1ccc(-c2ccc(-c3ccccc3)cc2)cc1` , is 16.6% [at 19 µM] (inactive)

activity, positive = activation recorded for this molecule, `NC(N)=NCCN1CCCCCCC1` , is 3.17% [at 0.349 µM] (inactive)

activity, positive = activation recorded for this molecule, `Cc1[nH]c(C)c(Cl)c(=O)c1Cl` , is 3.75% [at 19 µM] (inactive)

###

For each of the compounds below, state its Potency.
assay: p53 small molecule agonists, cell-based qHTS assay: qHTS cell viability counter screen (AID 1963581); details: p53RE-bla HCT-116 viability, ATP luminescence, 16 h; series mostly up to 66 µM; note: potency is the fitted concentration of half-maximal effect; nearly all actives have a fitted effect of over 45% in size
Records with an inconclusive call do not appear. The source made the active and inactive calls. The call rests on the fitted dose curve.

Potency recorded for this compound, Cc1cc(C(C#N)c2ccc(Cl)cc2)c(Cl)cc1NC(=O)c1cc(I)cc(I)c1O (centres undefined) , is 5.61 µM (active)

Potency recorded for this compound, CCCCCCCCCCCCCC[P+](CCCC)(CCCC)CCCC (tested in a mixture with another compound) , is 16.3 µM (active)

Potency recorded for this compound, `N=C1N=C(N)c2cc3ccccc3cc21` , is 23.6 µM (active)

Potency recorded for this compound, `CCCCCCCCCCCCCCCCCC[N+](C)(C)Cc1ccccc1` , is 20.6 µM (active)

###

target: Beta-2 adrenergic receptor (Homo sapiens) (UniProt P07550); experiment: Adrenergic beta2 receptor (ADRB2) small molecule antagonists, cell-based qHTS assay (AID 1963592); settings: CHO-ADRB2 cells, isoproterenol-stimulated cAMP HTRF ratio, 0.5 h; series mostly up to 92.4 µM; note: nearly all actives have a fitted effect of over 50% in size
Sequence (P07550 whole entry, looked up): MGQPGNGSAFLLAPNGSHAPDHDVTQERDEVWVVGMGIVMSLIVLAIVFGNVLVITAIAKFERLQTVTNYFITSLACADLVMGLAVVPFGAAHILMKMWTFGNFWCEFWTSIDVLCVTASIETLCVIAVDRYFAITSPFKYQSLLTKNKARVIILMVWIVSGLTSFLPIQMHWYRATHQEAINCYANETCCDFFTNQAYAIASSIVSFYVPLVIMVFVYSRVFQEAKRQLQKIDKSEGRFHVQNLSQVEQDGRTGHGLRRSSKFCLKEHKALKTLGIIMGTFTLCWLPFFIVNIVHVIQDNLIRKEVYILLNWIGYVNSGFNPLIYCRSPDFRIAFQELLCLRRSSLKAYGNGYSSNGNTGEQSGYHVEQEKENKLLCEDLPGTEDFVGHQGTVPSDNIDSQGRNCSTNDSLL
Records with an inconclusive call do not appear. Active and inactive are the calls of the source. Calls follow the shape of the full dose curve.
The reply should be one of these categories: yes (1) = active, no (0) = inactive

Could you kindly confirm the outcome this assay logged for `COc1ccc(C(=O)/C(Br)=C\C(=O)O)cc1` ?
no (0)

Could you kindly confirm the outcome this assay logged for `CCCCOc1ccc(N)cc1` ?
no (0)

Could you kindly confirm the outcome this assay logged for CCCNC(C)C(=O)Nc1c(C)csc1C(=O)OC (centres undefined) ?
no (0)

Could you kindly confirm the outcome this assay logged for `O=C=Nc1ccc(Cl)c(Cl)c1` ?
no (0)

Could you kindly confirm the outcome this assay logged for `c1ccc2sc(SN(C3CCCCC3)C3CCCCC3)nc2c1` ?
no (0)

Could you kindly confirm the outcome this assay logged for `CCc1ccccc1` ?
no (0)

Could you kindly confirm the outcome this assay logged for `O=C(CC(=O)C(F)(F)F)c1ccccc1` ?
no (0)

Could you kindly confirm the outcome this assay logged for `O=c1cc(-c2ccccc2)oc2cc(O)cc(O)c12` ?
no (0)

Could you kindly confirm the outcome this assay logged for `C=CCN(CC=C)CC=C` ?
no (0)

Could you kindly confirm the outcome this assay logged for c1cc(OCC2CO2)cc(OCC2CO2)c1 (centres undefined) ?
no (0)

Could you kindly confirm the outcome this assay logged for `CCCCCCCCS(=O)(=O)O` ?
no (0)

Could you kindly confirm the outcome this assay logged for `CCCCCOC(=O)c1ccc(O)cc1` ?
no (0)

Could you kindly confirm the outcome this assay logged for `Clc1sc(Cl)c(Cl)c1Cl` ?
no (0)

Could you kindly confirm the outcome this assay logged for `CC(=O)N(C)C` ?
no (0)

Could you kindly confirm the outcome this assay logged for `O=C(c1ccccc1)C1CCCCC1` ?
no (0)

Could you kindly confirm the outcome this assay logged for `O=C(CCCCCCC(=O)Nc1ccccc1)NO` ?
no (0)

Could you kindly confirm the outcome this assay logged for `CC(=O)Nc1ccccc1O` ?
no (0)

Could you kindly confirm the outcome this assay logged for `CC1=CC(=O)/C(=C(/C)O)C(=O)O1` ?
no (0)

Could you kindly confirm the outcome this assay logged for `CCCCCSCCCCC` ?
no (0)

Could you kindly confirm the outcome this assay logged for CN[C@@H]1[C@@H](O)[C@@H](O[C@@H]2[C@H](O)[C@H](O[C@H]3OC(CN)=CC[C@H]3N)[C@@H](N)C[C@H]2N)OCC1(C)O (some centres undefined) ?
yes (1)

Could you kindly confirm the outcome this assay logged for `C=CC(=O)N1CCOCC1` ?
no (0)

Could you kindly confirm the outcome this assay logged for `C#C[C@]1(O)CC[C@H]2[C@@H]3CCc4cc(OC5CCCC5)ccc4[C@H]3CC[C@@]21C` ?
no (0)

Could you kindly confirm the outcome this assay logged for `COc1cc(Cl)ccc1Oc1ccc(Cl)cc1Cl` ?
no (0)

Could you kindly confirm the outcome this assay logged for `CCCc1ccc(OC)cc1` ?
no (0)

Could you kindly confirm the outcome this assay logged for CCC(C)(CCC(C)C)C(=O)O (centres undefined) ?
no (0)

Could you kindly confirm the outcome this assay logged for `COc1cc(/C=C/c2ccccc2)oc(=O)c1` ?
no (0)

Could you kindly confirm the outcome this assay logged for `COC(=O)NCCC[Si](OC)(OC)OC` ?
no (0)

Could you kindly confirm the outcome this assay logged for `CCOC(=O)/C=C(C)/C=C/C=C(C)/C=C/c1c(C)cc(OC)c(C)c1C` ?
no (0)

Could you kindly confirm the outcome this assay logged for CC(CCO)CCCC(C)(C)O (centres undefined) ?
no (0)
